Assay: The drug is tested on Z-013 corresponding to rabbit gut metagenome with ENA study accession number: PRJEB37062 and ENA sample accession number: ERS12561813 for biotransformation under anaerobic condition. The drug concentrations were measured over 9 timepoints collected between 0 and 24 hours of incubation by liquid-chromatography-coupled mass spectrometry (LC–MS); further: call rule not given here
Details: 2 µM
EXPERIMENTAL ENDPOINT: Bacterial Biotransformation

COMPOUND: Cc1ccccc1C(OCCN(C)C)c1ccccc1.O=C(O)CC(O)(CC(=O)O)C(=O)O (stereo not given) [ORPHENADRINE CITRATE]
ENDPOINT RESULT: Compound NOT metabolized

COMPOUND: CC(=O)OCC(=O)[C@@]1(OC(C)=O)[C@@H](C)C[C@H]2[C@@H]3C[C@H](F)C4=CC(=O)C=C[C@]4(C)[C@@]3(F)[C@@H](O)C[C@@]21C [DIFLORASONE DIACETATE]
ENDPOINT RESULT: Compound metabolized

COMPOUND: Br.COc1ccc2c(c1)[C@]13CCCC[C@@H]1[C@H](C2)N(C)CC3.O [DEXTROMETHORPHAN HYDROBROMIDE]
ENDPOINT RESULT: Compound NOT metabolized

COMPOUND: N=C(N)NC(=O)Cc1c(Cl)cccc1Cl
ENDPOINT RESULT: Compound NOT metabolized

Exercise: Quick check: Bacterial Biotransformation of CCCCCNC(=N)N/N=C/c1c[nH]c2ccc(OC)cc12.O=C(O)/C=C\C(=O)O [TEGASEROD MALEATE] ?
Solution: Compound NOT metabolized

Exercise: Quick check: Bacterial Biotransformation of C[C@]12C=CC(=O)C=C1CC[C@@H]1[C@@H]2C(=O)C[C@@]2(C)[C@H]1CC[C@]2(O)C(=O)CO ?
Solution: Compound NOT metabolized

---

Settings: human gut metagenome, 24 h, 2 µM
EXPERIMENTAL ENDPOINT: Bacterial Biotransformation

Look over these answered cases.
COMPOUND: C#C[C@]1(OC(C)=O)CC[C@H]2[C@@H]3CCC4=CC(=O)CC[C@@H]4[C@H]3CC[C@@]21C [NORETHINDRONE ACETATE]
ENDPOINT RESULT: Compound metabolized
//
COMPOUND: CC(NC(C)(C)C)C(=O)c1cccc(Cl)c1 (stereo not drawn)
ENDPOINT RESULT: Compound NOT metabolized
//
COMPOUND: CCc1oc2ccccc2c1C(=O)c1cc(Br)c(O)c(Br)c1
ENDPOINT RESULT: Compound metabolized
//
COMPOUND: CC(C)[C@H]1CC[C@H](C(=O)N[C@H](Cc2ccccc2)C(=O)O)CC1 [NATEGLINIDE]
ENDPOINT RESULT: Compound metabolized
//
COMPOUND: C#C[C@]1(OC(C)=O)CC[C@H]2[C@@H]3CCC4=C/C(=N/O)CC[C@@H]4[C@H]3CC[C@@]21CC [NORGESTIMATE]
ENDPOINT RESULT: Compound metabolized

Exercise: Quick check: Bacterial Biotransformation of Nc1nc(N)nc(-c2cc(Cl)ccc2Cl)n1.O=C(O)/C=C\C(=O)O [IRSOGLADINE MALEATE] ?
Solution: Compound NOT metabolized

Exercise: Quick check: Bacterial Biotransformation of CC(C)(C)N.CCC[C@H](N[C@@H](C)C(=O)N1[C@H](C(=O)O)C[C@@H]2CCCC[C@@H]21)C(=O)OCC ?
Solution: Compound metabolized

Exercise: Quick check: Bacterial Biotransformation of C[C@@H](c1ncncc1F)[C@](O)(Cn1cncn1)c1ccc(F)cc1F ?
Solution: Compound metabolized

// provenance: ChEMBL document CHEMBL5724914
